# FACS-Seq fitted mean (log10) annotations
B1: library; a variant is named by its letters at N, in order (parent)
chain: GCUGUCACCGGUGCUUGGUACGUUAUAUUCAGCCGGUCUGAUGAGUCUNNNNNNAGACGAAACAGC

Variants of: B1
Test: FACS-Seq fitted mean relative fluorescence mCherry/BFP without ligand (log10 relative fluorescence); HEK293T overexpressing SLC46A1; higher = higher reporter protein expression
Conditions: without (6R,S)-folinic acid; ligand present: no
experimental readout: FACS-Seq fitted mean (log10)

INSERT INTO assay_data (variant_key, endpoint_value) VALUES
  ('UUAAAC', 0.248),
  ('AUUAAA', 0.22),
  ('UGAAAG', 0.184),
  ('GCACAA', -0.45),
  ('AGUGGA', 0.399),
  ('UCGAAU', 0.347),
  ('CCCUCA', 0.596),
  ('GAGGGA', 0.161),
  ('GUCUAU', 0.0107),
  ('AGAUGG', 0.589),
  ('GGAAAC', 0.359),
  ('GUAAUA', -0.154),
  ('GACACA', 0.265),
  ('GUCGCA', 0.512),
  ('UGAAGG', 0.12),
  ('GGAUUU', 0.647),
  ('CCCUUC', 0.28),
  ('UCGAUA', 0.597),
  ('GAGAAC', 0.435),
  ('CGGGAA', 0.288),
  ('CGAGUG', 0.389),
  ('GCUUUA', 0.213),
  ('ACAGAC', 0.355),
  ('GCUGAU', 0.277),
  ('AGACGC', 0.389),
  ('GCAGAU', 0.24),
  ('AAGAUG', 0.383),
  ('UUUUGA', 0.586),
  ('GAGGUG', 0.324),
  ('GGGUAG', 0.0738),
  ('AGGUUA', 0.33);
